Attribution: patent US8999957B2

Molecular target: ERK protein (Mus musculus, UniProt P63085)
Sequence (P63085 2-358 limits assumed): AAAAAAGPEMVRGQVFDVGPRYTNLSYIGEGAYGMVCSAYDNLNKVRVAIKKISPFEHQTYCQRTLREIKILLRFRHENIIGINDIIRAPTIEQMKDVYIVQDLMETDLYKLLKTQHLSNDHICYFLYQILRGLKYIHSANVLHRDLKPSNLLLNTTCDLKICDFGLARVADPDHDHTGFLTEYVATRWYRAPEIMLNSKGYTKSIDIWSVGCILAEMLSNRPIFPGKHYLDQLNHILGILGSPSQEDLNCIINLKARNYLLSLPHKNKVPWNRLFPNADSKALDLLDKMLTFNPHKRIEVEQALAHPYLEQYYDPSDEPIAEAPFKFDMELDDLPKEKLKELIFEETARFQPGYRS
Assay: TdF (Temperature Dependence Fluorescence, thermal shift) assay for ERK
Type: binding
Conditions: 3 μM ERK protein, uncertainty estimated ±50%, read-out: Kd TdF

# Compound, Readout Unit, Kd
measured = [
    ("Cc1cc(-c2n[nH]c3ccc(C(=O)N[C@@H]4CCCN(Cc5ccccc5F)C4)cc23)ccn1", "nM", 0.5),
    ("O=C(Nc1ccc2[nH]nc(-c3ccncc3)c2c1)C1CNCC(c2ccccc2)C1 (centres unmarked)", "nM", 8),
    ("Cc1cc(-c2n[nH]c3ccc(C(=O)N[C@@H]4CCCN(C5CCc6ccccc65)C4)cc23)ccn1 (some centres unmarked)", "nM", 0.28),
    ("COc1cccc(F)c1CN1CC(CO)CC(NC(=O)c2ccc3[nH]nc(-c4ccc5nccn5c4)c3c2)C1 (centres unmarked)", "nM", 1.68),
    ("Cc1cc(-c2n[nH]c3ccc(C(=O)N[C@@H]4CCCN(Cc5cc(F)c(Cl)cc5Cl)C4)cc23)ccn1", "nM", 9.76),
    ("COc1cccc(F)c1CN1C[C@@H](C)C[C@@H](NC(=O)c2ccc3[nH]nc(-c4ccc5nccn5c4)c3c2)C1", "nM", 0.01),
    ("CN1CC(NC(=O)c2ccc3[nH]nc(-c4ccncc4)c3c2)CC(c2ccccc2)C1 (centres unmarked) [drawing 219]", "nM", 1.4),
    ("O=C(N[C@H]1CCCN(Cc2ccccc2F)C1)c1ccc2[nH]nc(-c3ccncc3)c2c1", "nM", 38),
    ("COc1cccc(F)c1CN1CC(NC(=O)c2ccc3[nH]nc(-c4ccnc(C)c4)c3c2)CC(OC)C1 (centres unmarked)", "nM", 0.42),
    ("O=C(NC1CCCN(Cc2ccccc2)C1)c1ccc2[nH]nc(-c3ccc4c(c3)CCO4)c2c1 (centres unmarked)", "nM", 1.4),
    ("COc1cccc(F)c1CN1CCC[C@@H](NC(=O)c2ccc3[nH]nc(-c4cccc(C#N)c4)c3c2)C1", "nM", 0.83),
    ("O=C(N[C@@H]1CCCN(Cc2ccccc2F)C1)c1ccc2[nH]nc(-c3ccnc(C4CC4)c3)c2c1", "nM", 0.4),
    ("Cc1cc(-c2n[nH]c3ccc(C(=O)N[C@@H]4CCCN(Cc5c(F)cccc5F)C4)cc23)ccn1", "nM", 0.51),
    ("Cc1cc(-c2n[nH]c3ccc(C(=O)N[C@@H]4CCCN(Cc5ccccc5O)C4)cc23)ccn1", "nM", 2.36),
    ("COc1cccc(CN2CCC[C@@H](NC(=O)c3ccc4[nH]nc(-c5ccnc(C)c5)c4c3)C2)n1", "nM", 2.33),
    ("COc1cccc(F)c1CN1CCC[C@@H](NC(=O)c2ccc3[nH]nc(-c4cccc(C(C)=O)c4)c3c2)C1", "nM", 2.01),
    ("Cc1cc(-c2n[nH]c3ccc(C(=O)N[C@@H]4CCCN(Cc5scnc5C)C4)cc23)ccn1", "nM", 20.3),
    ("N#Cc1ccc(CN2CCC[C@@H](NC(=O)c3ccc4[nH]nc(-c5ccc6c(c5)CCO6)c4c3)C2)cc1", "nM", 82),
    ("COc1cccc(F)c1CN1CCC[C@@H](NC(=O)c2ccc3[nH]nc(-c4ccc(C#N)cc4)c3c2)C1", "nM", 0.24),
    ("Cc1cc(-c2n[nH]c3ccc(C(=O)N[C@@H]4CCCN(Cc5cc6ccccc6s5)C4)cc23)ccn1", "nM", 3.97),
    ("Cc1cc(-c2n[nH]c3ccc(C(=O)N[C@@H]4CCCN(Cc5cn(C)c6ccccc56)C4)cc23)ccn1", "nM", 1.38),
    ("CC(C)Oc1ccc(-c2n[nH]c3ccc(C(=O)N[C@@H]4CCCN(Cc5ccccc5F)C4)cc23)cc1", "nM", 1.2),
    ("COc1ccsc1CN1CCC[C@@H](NC(=O)c2ccc3[nH]nc(-c4ccnc(C)c4)c3c2)C1", "nM", 0.97),
    ("COc1cccc(F)c1CN1CCC[C@@H](NC(=O)c2ccc3[nH]nc(-c4ccc5sccc5c4)c3c2)C1", "nM", 0.15),
    ("O=C(N[C@@H]1CCCN(Cc2ccccc2F)C1)c1ccc2[nH]nc(-c3ccncc3)c2c1", "nM", 0.6),
    ("O=C(N[C@@H]1CCCN(Cc2ccccc2)C1)c1ccc2[nH]nc(-c3ccncc3)c2c1", "nM", 0.3),
]
